TGT: C-terminal GST-tagged, recombinant, human IGF-1R, amino acids 954-1367 (Homo sapiens, UniProt P08069)
Construct: human IGF-1R, amino acids 954-1367 expressed by baculovirus in Sf21 cells; GST (C)
Sequence (P08069 954-1367): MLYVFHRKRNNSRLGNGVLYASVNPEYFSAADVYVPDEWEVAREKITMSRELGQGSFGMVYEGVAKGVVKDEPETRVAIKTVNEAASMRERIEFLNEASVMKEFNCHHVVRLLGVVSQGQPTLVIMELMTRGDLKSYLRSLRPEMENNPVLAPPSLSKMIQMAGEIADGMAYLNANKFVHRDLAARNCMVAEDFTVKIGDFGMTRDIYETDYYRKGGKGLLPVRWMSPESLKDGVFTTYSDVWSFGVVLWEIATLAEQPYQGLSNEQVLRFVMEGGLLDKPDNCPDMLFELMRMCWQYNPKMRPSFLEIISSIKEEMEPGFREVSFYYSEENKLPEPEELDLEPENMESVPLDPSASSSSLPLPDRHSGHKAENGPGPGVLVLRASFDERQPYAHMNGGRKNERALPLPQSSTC
METHOD_DESCRIPTION: IGF-1R homogenous time-resolved fluorescence (HTRF) in vitro kinase assay
MEASUREMENT_CONTEXT: IGF-1R kinase, ATP 50 μM final, biotinylated peptide substrate 0.5 μM, 60 minutes at room temperature
pIC50: −log10 of the molar value.
READOUT: pIC50

CPD_SMILES: CN(C)CCc1cccc(Nc2nccc(-c3c(-c4ccc5nc(Cc6ccccc6Cl)[nH]c5c4)nc4sccn34)n2)c1
READOUT_VALUE: > 8.00

CPD_SMILES: COc1cc(N2CCOCC2)ccc1Nc1nccc(-c2c(-c3ccc4nc(Cc5ccccc5)[nH]c4c3)nc3ccccn23)n1
READOUT_VALUE: > 8.00

CPD_SMILES: CN(C)CCc1cccc(Nc2nccc(-c3c(-c4ccc5[nH]c(Cc6ccccc6Cl)nc5c4)nc4ccccn34)n2)c1
READOUT_VALUE: > 8.00

CPD_SMILES: COc1ccc(CN(C)CCO)cc1Nc1nccc(-c2c(-c3ccc4nc(Cc5ccccc5)[nH]c4c3)nc3ccccn23)n1
READOUT_VALUE: 7.30 to 8.00

CPD_SMILES: COc1ccc(C(F)(F)F)cc1Nc1nccc(-c2c(-c3ccc4nc(Cc5ccccc5)[nH]c4c3)nc3ccccn23)n1
READOUT_VALUE: 6.30 to 7.00

CPD_SMILES: COc1ccc(NC(=O)CN(C)C)cc1Nc1nccc(-c2c(-c3ccc4nc(Cc5ccccc5)[nH]c4c3)nc3ccccn23)n1
READOUT_VALUE: > 8.00

CPD_SMILES: CCn1cc(-c2ccnc(Nc3cccc(CN(C)C)c3)n2)c(-c2ccc3[nH]c(Cc4ccccc4OC)nc3c2)n1
READOUT_VALUE: 7.30 to 8.00

CPD_SMILES: COc1cc(N(C)C)ccc1Nc1nccc(-c2c(-c3ccc4nc(Cc5ccccc5Cl)[nH]c4c3)nc3sccn23)n1
READOUT_VALUE: 7.30 to 8.00

CPD_SMILES: Cc1cc(Nc2nccc(-c3c(-c4ccc5nc(Cc6ccccc6)[nH]c5c4)nc4ccccn34)n2)n[nH]1
READOUT_VALUE: 7.00 to 7.29

CPD_SMILES: COc1cc(N2CCC(N(C)C)CC2)ccc1Nc1nccc(-c2c(-c3ccc4nc(Cc5ccccc5C(F)(F)F)[nH]c4c3)nc3sccn23)n1
READOUT_VALUE: > 8.00

CPD_SMILES: COc1cc(N2CCC(N(C)C)CC2)ccc1Nc1nccc(-c2c(-c3ccc4nc(Cc5ccccc5Cl)[nH]c4c3)nc3sccn23)n1
READOUT_VALUE: > 8.00

CPD_SMILES: O=c1[nH]cccc1Nc1nccc(-c2c(-c3ccc4[nH]c(Cc5ccccc5)nc4c3)nc3ccccn23)n1
READOUT_VALUE: 6.30 to 7.00

CPD_SMILES: c1ccc(Nc2nccc(-c3c(-c4ccc5nc(-c6ccccc6)[nH]c5c4)nc4ccccn34)n2)cc1
READOUT_VALUE: 6.30 to 7.00

CPD_SMILES: CS(=O)(=O)c1ccc(Nc2nccc(-c3c(-c4ccc5nc(Cc6ccccc6)[nH]c5c4)nc4ccccn34)n2)cc1
READOUT_VALUE: 7.00 to 7.29

CPD_SMILES: CCn1cc(-c2ccnc(Nc3ccc(N4CCC(N(C)C)CC4)cc3OC)n2)c(-c2ccc3[nH]c(-c4ccccc4)nc3c2)n1
READOUT_VALUE: 6.30 to 7.00

CPD_SMILES: CCn1cc(-c2ccnc(Nc3cccc(CN(C)C)c3)n2)c(-c2ccc3[nH]c(Cc4ccccc4Cl)nc3c2)n1
READOUT_VALUE: 7.30 to 8.00

CPD_SMILES: Fc1ccc(Nc2nccc(-c3c(-c4ccc5nc(-c6ccccc6)[nH]c5c4)nc4ccccn34)n2)cc1
READOUT_VALUE: 6.30 to 7.00

CPD_SMILES: CCn1cc(-c2ccnc(Nc3ccccc3OC)n2)c(-c2ccc3[nH]c(Cc4ccccc4OC)nc3c2)n1
READOUT_VALUE: 6.30 to 7.00

CPD_SMILES: COc1ccccc1Cc1nc2ccc(-c3nc4sccn4c3-c3ccnc(Nc4ccc(N(C)C)cc4OC)n3)cc2[nH]1
READOUT_VALUE: 7.30 to 8.00

CPD_SMILES: c1ccc(Cc2nc3ccc(-c4nc5sccn5c4-c4ccnc(Nc5ccccc5)n4)cc3[nH]2)cc1
READOUT_VALUE: 7.00 to 7.29

CPD_SMILES: CN(C)CCc1cccc(Nc2nccc(-c3c(-c4ccc5nc(-c6ccccc6)[nH]c5c4)nc4ccccn34)n2)c1
READOUT_VALUE: 7.30 to 8.00

CPD_SMILES: FC(F)(F)c1ccccc1Cc1nc2ccc(-c3nc4sccn4c3-c3ccnc(Nc4ccccc4CN4CCCC4)n3)cc2[nH]1
READOUT_VALUE: < 6.30

CPD_SMILES: CN(C)CCc1cccc(Nc2nccc(-c3c(-c4ccc5nc(Cc6ccccc6)[nH]c5c4)nc4sccn34)n2)c1
READOUT_VALUE: > 8.00

CPD_SMILES: CCn1cc(-c2ccnc(Nc3cccc(CN(C)C)c3)n2)c(-c2ccc3[nH]c(Nc4ccccc4)nc3c2)n1
READOUT_VALUE: 7.30 to 8.00

CPD_SMILES: COc1cc(NCC(=O)O)ccc1Nc1nccc(-c2c(-c3ccc4[nH]c(Cc5ccccc5)nc4c3)nc3ccccn23)n1
READOUT_VALUE: 7.30 to 8.00

CPD_SMILES: Fc1ccc(Nc2nccc(-c3c(-c4ccc5[nH]c(Cc6ccccc6)nc5c4)nc4ccccn34)n2)c(F)c1
READOUT_VALUE: 6.30 to 7.00

CPD_SMILES: CN(C)CCc1cccc(Nc2nccc(-c3c(-c4ccc5nc(CCc6ccccc6)[nH]c5c4)nc4ccccn34)n2)c1
READOUT_VALUE: 7.30 to 8.00

CPD_SMILES: CN(C)CC(=O)Nc1cccc(Nc2nccc(-c3c(-c4ccc5nc(Cc6ccccc6)[nH]c5c4)nc4ccccn34)n2)c1
READOUT_VALUE: > 8.00
